# testTarget: CXCR3 (Homo sapiens (Human), UniProt P49682)
# Sequence (P49682 whole entry): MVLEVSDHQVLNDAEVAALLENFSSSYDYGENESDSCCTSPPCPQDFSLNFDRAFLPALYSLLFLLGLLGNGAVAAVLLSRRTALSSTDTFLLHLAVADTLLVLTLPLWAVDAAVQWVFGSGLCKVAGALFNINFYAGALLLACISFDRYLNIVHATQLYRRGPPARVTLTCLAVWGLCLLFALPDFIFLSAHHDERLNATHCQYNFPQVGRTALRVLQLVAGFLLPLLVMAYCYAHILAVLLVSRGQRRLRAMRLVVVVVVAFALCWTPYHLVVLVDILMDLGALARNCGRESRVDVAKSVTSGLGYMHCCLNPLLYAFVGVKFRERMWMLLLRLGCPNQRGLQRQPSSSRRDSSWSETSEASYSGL
# testProtocol: Receptor profiling: calcium flux (FLIPR TETRA) on Chem-1 cells expressing chemokine receptor
# conditionsUsed: antagonist activity, reference agonist at AC80
measurementLabel: IC50 (nM)

compound	testTarget	IC50 / nM
Cc1ccc([C@H](Nc2c(Nc3ccc(Cl)c(S(=O)(=O)N4CCN(C)CC4)c3O)c(=O)c2=O)C2(C)COC2)o1 [Example 53]	CXCR3 (Homo sapiens (Human), UniProt P49682)	920

I: COC(=O)[C@H]1CCCN1C(=O)c1cccc(Nc2c(N[C@@H](c3ccc(C)o3)C3(C)COC3)c(=O)c2=O)c1O [Example 8]
II: Cc1ccc([C@H](Nc2c(Nc3cccc(C(=O)N(C)C)c3O)c(=O)c2=O)C2(C)COC2)o1 [Example 50]
[in] Could you check which of I and II has a smaller value for IC50? Return value: the label identifying the chosen record.
[out] I

The measured values listed here are drawn from patent US9090596B2.
